The reported numbers originate from ChEMBL document CHEMBL1961873.

Target: MAP kinase-activated protein kinase 2 (Homo sapiens) (UniProt P49137);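 also: values are mean inhibition from the GSK PKIS screen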
Sequence (P49137 whole entry, looked up): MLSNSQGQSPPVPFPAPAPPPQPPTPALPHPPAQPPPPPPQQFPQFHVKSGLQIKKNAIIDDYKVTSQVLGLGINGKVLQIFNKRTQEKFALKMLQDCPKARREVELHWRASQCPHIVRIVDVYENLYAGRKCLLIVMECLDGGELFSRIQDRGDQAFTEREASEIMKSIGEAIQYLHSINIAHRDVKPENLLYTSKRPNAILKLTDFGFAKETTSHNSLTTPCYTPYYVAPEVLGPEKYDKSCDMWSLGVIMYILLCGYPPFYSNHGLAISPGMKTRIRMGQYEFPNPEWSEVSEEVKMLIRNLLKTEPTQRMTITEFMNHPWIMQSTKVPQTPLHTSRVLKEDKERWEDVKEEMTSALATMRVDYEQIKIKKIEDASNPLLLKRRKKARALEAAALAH
Conditions: at 1 µM
observed_property: inhibition (%)
Form entry: value (%) — number only.

Give the observed inhibition of CC1=C(C(=O)Nc2ccc3[nH]ncc3c2)C(c2ccc(Cl)c(Cl)c2)CC(=O)N1 (stereo not given) for MAP kinase-activated protein kinase 2 (Homo sapiens) (UniProt P49137).
-0.26

Give the observed inhibition of NC(=O)c1ccc(-c2nc(-c3ccccn3)c(-c3ccc4c(c3)OCO4)[nH]2)cc1 for MAP kinase-activated protein kinase 2 (Homo sapiens) (UniProt P49137).
0.74

Give the observed inhibition of CC(C)=Cc1cccc2c1/C(=N/Nc1ccc(S(N)(=O)=O)cc1)C(=O)N2 for MAP kinase-activated protein kinase 2 (Homo sapiens) (UniProt P49137).
3.71

Give the observed inhibition of N#Cc1c(NC(=O)c2cccc3ccccc23)sc2c1CCCC2 for MAP kinase-activated protein kinase 2 (Homo sapiens) (UniProt P49137).
3.83

Give the observed inhibition of O=C1NC(=O)C(c2ccccc2Cl)=C1Nc1cccc(O)c1 for MAP kinase-activated protein kinase 2 (Homo sapiens) (UniProt P49137).
1.05

Give the observed inhibition of COC(=O)Nc1nc2cc(Oc3ccc(NC(=O)Nc4cccc(C(=O)O)c4)cc3)ccc2[nH]1 for MAP kinase-activated protein kinase 2 (Homo sapiens) (UniProt P49137).
0.43

Give the observed inhibition of COc1ccccc1Nc1ncc(-c2ccccc2)o1 for MAP kinase-activated protein kinase 2 (Homo sapiens) (UniProt P49137).
-1.84

Give the observed inhibition of COc1ccc(-c2coc3ncnc(N)c23)cc1 for MAP kinase-activated protein kinase 2 (Homo sapiens) (UniProt P49137).
4.6

Give the observed inhibition of NCc1ccc(-c2nc(-c3ccc(Cl)c(O)c3)c(-c3ccncc3)[nH]2)cc1 for MAP kinase-activated protein kinase 2 (Homo sapiens) (UniProt P49137).
-0.56

Give the observed inhibition of Nc1ncnc2occ(-c3ccc(NC(=O)Nc4cc(C(F)(F)F)cc(C(F)(F)F)c4)cc3)c12 for MAP kinase-activated protein kinase 2 (Homo sapiens) (UniProt P49137).
0.1

====

Target: Serine/threonine-protein kinase Sgk2 (Homo sapiens)
Conditions: at 1 µM
Description: GSK_PKIS: SGK2 mean inhibition at 1 uM [Nanosyn]
Response key: 1.0 means inhibition >= 3%; 0.0 means inhibition < 3%.

Check this compound for inhibition at or above 3%: CCn1c(-c2nonc2N)nc2cncc(C(=O)N3CCNCC3)c21
1.0

Check this compound for inhibition at or above 3%: CN1CCC(C(=O)Nc2n[nH]c3nnc(-c4ccccc4)cc23)CC1
1.0

Check this compound for inhibition at or above 3%: CCn1c(-c2nonc2N)nc2c(N3CCCC3)nccc21
0.0

Check this compound for inhibition at or above 3%: CCCN1CCC(Oc2cc(Nc3nc(Nc4cccc(F)c4C(N)=O)c4cc[nH]c4n3)c(OC)cc2Cl)CC1
0.0

Check this compound for inhibition at or above 3%: COC(=O)Nc1nc2cc(Oc3ccc(NC(=O)Nc4cccc(C(=O)O)c4)cc3)ccc2[nH]1
0.0

Check this compound for inhibition at or above 3%: COc1ccc(-c2ccncc2)cc1C(N)=O
0.0

====

Biological target: Protein-tyrosine kinase 6 (Homo sapiens)
Settings: at 1 µM
Description: GSK_PKIS: BRK mean inhibition at 1 uM [Nanosyn]
Would you kindly list inhibition for each of these molecules?
Form entry: value (%) — number only.

Item CN(C)c1cc2c(Nc3ccc4nc(Cc5ccccc5)[nH]c4c3)ncnc2cn1 : provide inhibition
6.35

Item c1cnn2ncc(-c3ccnc(Nc4ccc5c(c4)OCCO5)n3)c2c1 : provide inhibition
13.7

Item COC(=O)Nc1nc2cc(Oc3cccc(NC(=O)Nc4cc(C(F)(F)F)ccc4F)c3)ccc2[nH]1 : provide inhibition
-2.33

Item CC1=C(C(=O)Nc2ccc3[nH]ncc3c2)C(c2ccc(Cl)c(Cl)c2)CC(=O)N1 (stereo not given) : provide inhibition
3.02

Item Nc1nc(-c2ccccn2)c(-c2ccc3ncccc3n2)s1 : provide inhibition
7.02

Item CCn1c(-c2nonc2N)nc2cnc(Oc3cccc(NC(=O)c4ccc(OCCN5CCOCC5)cc4)c3)cc21 : provide inhibition
4.32

Item CNC(=O)c1cncc(/C=C/c2c(Cl)cccc2Cl)c1 : provide inhibition
56

Item Cc1ccc(C(=O)NC2CCCCC2)cc1-c1ccc(C(=O)NCC2CC2)cc1 : provide inhibition
3.75

Item CCn1c(-c2nonc2N)nc2c(N3CCCC3)nccc21 : provide inhibition
-2.02

Item NC(=O)c1cccc(Nc2nccc(Nc3cccc4[nH]ncc34)n2)c1 : provide inhibition
99.7
